target: D2 receptors (Chlorocebus aethiops, UniProt P52702); assay: biochemical; assay type: binding, African Green monkey; conditions: COS cells containing recombinant D2 receptors; 0.5 nM ^3 H-YM 09151-2; nonspecific binding with 1 mM spiperone; read-out: D2 Ki
Sequence (P52702 whole entry): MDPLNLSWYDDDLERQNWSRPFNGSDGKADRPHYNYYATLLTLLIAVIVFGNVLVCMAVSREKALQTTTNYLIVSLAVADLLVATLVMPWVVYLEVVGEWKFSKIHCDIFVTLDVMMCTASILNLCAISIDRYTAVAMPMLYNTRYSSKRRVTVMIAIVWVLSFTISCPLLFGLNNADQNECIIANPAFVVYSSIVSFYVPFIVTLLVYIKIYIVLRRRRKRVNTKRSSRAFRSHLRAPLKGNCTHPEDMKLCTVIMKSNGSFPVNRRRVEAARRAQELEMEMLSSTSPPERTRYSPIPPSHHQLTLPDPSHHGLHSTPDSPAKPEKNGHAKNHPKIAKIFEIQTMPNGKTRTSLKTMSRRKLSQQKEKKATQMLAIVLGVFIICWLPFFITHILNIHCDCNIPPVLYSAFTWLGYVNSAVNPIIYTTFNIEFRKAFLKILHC
Counter-ions that a name gives are not always drawn.
quantity name: Ki (nM)

a = O=C(NCCCCN1CCN(c2cccc3ccccc23)CC1)c1ccc2c(c1)Cc1ccccc1-2 [Compound 2, hydrochloride]
b = O=C(NCCCCN1CCN(c2ccccc2Cl)CC1)c1ccc2c(c1)C(=O)c1ccccc1-2 [Compound 3, hydrochloride]
Query: Parameter metric = Ki. Return the lower-valued option from a and b . API: response body contains the label of the selected item.
Response: b
